Each recorded value in this set is attributed to PubChem BioAssay.

Procedure summary: inhibitors of TNFa-induced NFkB p65 translocation, primary screen, imaging, HUVEC, MLSMR starter and 10KST1 sets (AID 438);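 note: compound added about 3h40 before a 20 min TNFalpha stimulation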
Study conditions: HUVEC TNFa-induced p65 nuclear translocation; measured here: nuclei count (cytotoxicity indicator), at 2.08 µM
Endpoint name: cell count
Number only, please.

Below, 3 compounds whose answers are already recorded.
{"columns": ["Compound", "cell count"],
 "data": [
  ["CC(C)CNc1nc2c(c(=O)n(C)c(=O)n2C)n1Cc1cccc(Br)c1", 696],
  ["CCOc1ccc(OCc2cccc(C(=O)N3CCOCC3)c2)cc1", 383],
  ["O=C(O)c1cc(-c2ccccc2Cl)n[nH]1", 240]
]}

// returns reported cell count for input CC1(C(=O)CSc2nc3ccccc3[nH]2)CCC(=O)O1 (stereo unspecified)
631

// returns reported cell count for input `Cc1ccc(NC(=O)CN(C)S(=O)(=O)c2cccc3nsnc23)cc1Cl`
711

// returns reported cell count for input `O=C(CCCOc1ccccc1)N1CCN(c2ccccn2)CC1`
232

// returns reported cell count for input `CC1CCN(Cc2ccc(-c3nn[nH]n3)cc2)CC1`
582

// returns reported cell count for input `CCOC(=O)Cn1c(=O)c(-c2ccccc2N)nc2ccccc21`
620

// returns reported cell count for input CC1=C(C(=O)N2CCCCC2)C(c2cccs2)C2=C(CCCC2=O)N1 (stereo unspecified)
332

// returns reported cell count for input `CS(=O)(=O)c1ccc2nc(NC(NC(=O)c3ccco3)(C(F)(F)F)C(F)(F)F)sc2c1`
376

// returns reported cell count for input `COc1ccc(NC(=O)CN2CCN(S(=O)(=O)c3ccc(Cl)cc3)CC2)cc1`
333

----------
Procedure summary: inhibitors of Sendai virus-induced IRF3 signaling, primary screen, TLR/RLR signaling modifier project, cell-based, Sendai virus stimulus, luciferase, 10K MLSCN set (AID 602276);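 note: firefly luciferase from ISG56 promoter only with Renilla not read in this screen; 0% = Sendai virus plus DMSO and 100% = medium plus DMSO without virus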
Study conditions: HEK293 RL24 IRF3 luciferase reporter, at 10 µM, stronger effect = higher value
Listed here: items and their measured inhibition.
Numbers only here, please. The scale is %.

Below, 5 compounds whose answers are already recorded.
{"columns": ["Compound", "Unit tag", "inhibition"],
 "data": [
  ["COc1ccc(CN(C(=O)c2oc3ccccc3c2C)C2CCS(=O)(=O)C2)cc1 (configuration not stated)", "%", -2.17],
  ["CCCC(=O)Nc1ccccc1-c1nnn(CC(=O)Nc2ccc(OC)cc2)n1", "%", 14.1],
  ["NCCCCCc1nnc(SC/C=C/c2ccccc2)o1", "%", 14.3],
  ["O=C(CSc1nc(N2CCCCC2)nc(N2CCCCC2)n1)Nc1nccs1", "%", 1.6],
  ["Nc1nc2ccccc2n1C(=O)CCc1ccccc1", "%", -24.1]
]}

// returns reported inhibition for input `Cc1nc2cc(Cl)ccc2n1CCO`
17

// returns reported inhibition for input `O=C(Cn1cnc2c(nnn2Cc2ccccc2)c1=O)c1ccc(Cl)cc1`
11.9

// returns reported inhibition for input COc1ccc(CCNC(=O)CCN2C(=O)C3CC=CCC3C2=O)cc1OC (configuration not stated)
3.55

// returns reported inhibition for input O=C(O)CC(NC(=O)c1ccccc1NC(=O)c1ccccc1)C(=O)O (configuration not stated)
-6.91

// returns reported inhibition for input `N#Cc1c(NCc2ccccc2)ccnc1NCc1cccnc1`
-0.363

// returns reported inhibition for input `COc1ccc(S(=O)(=O)N2CCN(c3ccc(C)cc3C)CC2)cc1OC`
4.37

// returns reported inhibition for input COC(=O)Nc1sc2c(c1C(=O)N1CCOCC1)CCC(C)C2 (configuration not stated)
7.08
